assayComment: qHTS profiling for inhibitors of Plasmodium falciparum (HB3) proliferation (AID 743324);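 further: 100% = DMSO vehicle wells and 0% = artemisinin-treated control wells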
assayContext: Plasmodium falciparum HB3 blood-stage proliferation; at 28.7 µM (top of the series)
measuredProperty: remaining proliferation (% of control), lower = more inhibition (%)
Could you give me the number in %? Just the number is fine.

Enquiry: Please give measured remaining proliferation (% of control), lower = more inhibition of the following entry: COc1ncc(-c2ccc3nccc(-c4ccnnc4)c3c2)cc1NS(=O)(=O)c1ccc(F)cc1F
Return: -1.02

Enquiry: Please give measured remaining proliferation (% of control), lower = more inhibition of the following entry: CC(C)(C(=O)NCC(F)(F)C(F)(F)F)C(=O)N[C@@H]1C(=O)Nc2ccccc2-c2ccccc21
Return: -0.0337

Enquiry: Please give measured remaining proliferation (% of control), lower = more inhibition of the following entry: CC(C)(C)C(=O)Oc1ccc2c(c1)nc(NC(=O)c1cccc([N+](=O)[O-])c1)n2CCCO
Return: 53.3

Enquiry: Please give measured remaining proliferation (% of control), lower = more inhibition of the following entry: CO[C@H]1C=CC=C(C)C(=O)NC2=CC(=O)C(NCCN(C)C)=C(C[C@@H](C)C[C@H](OC)[C@@H](O)[C@@H](C)C=C(C)[C@@H]1OC(N)=O)C2=O
Return: -2.33
